- Test system: SNB-75 CNS
- assaySummary: NCI-60 one-dose screen, 48 h
- protocolConditions: 10 µM unless noted
The panel holds about 83,000 compounds, 20% with a hit somewhere; the sample as a whole holds those more often. Calls of active or inactive are those of the source. Rule for the calls: active = growth percent below 10; inactive = the rest.
Mark one answer only. Choices: active, inactive

Check out these entries, answers already filled in.
CCc1nn2c(C)cc(C)nc2c1Cc1ccc(/C=C/CN2CCN(CCOCCOCCN3CCN(C/C=C/c4ccc(Cc5c(CC)nn6c(C)cc(C)nc56)cc4)CC3)CC2)cc1 : inactive
Cc1nn(-c2ccccc2)c2ncnc(N/N=C/c3ccccc3O)c12 : active
C#CCOc1ccc(/C=N\Nc2nc(-c3ccc(C)cc3)cs2)cc1OC : inactive
COc1ccc(NC(=O)Nc2ccc3c(ccn3C(=O)c3cccc(F)c3)c2)cc1 : inactive

Prompt: Per the records of this test, what outcome belongs to `COc1cc(OC)c(S(N)(=O)=O)cc1C(C)=O` ?
Response: inactive

Prompt: Recorded test outcome, item `CCCSc1nc(Nc2ccc(/C(C)=N\NC(N)=S)cc2)c(C#N)c(-c2ccccc2)n1`
Response: inactive

Prompt: In this assay, the call recorded for `C=CCN(C)S(=O)(=O)/N=C1\NC(=O)NC1=C(Cl)Cl` was what?
Response: inactive

Prompt: Which outcome was assigned to `CC/C(=C/c1cc(OC)ccc1O)c1ccc2cc(OC)ccc2[o+]1` in this test?
Response: inactive

Prompt: Check the results log: what was the call for O=C(c1ccc(Cl)cc1)C1[C@H](c2ccc(Cl)cc2)[C@@H](c2ccccc2)NC12C(=O)Nc1ccccc12 (some centres undefined) ?
Response: inactive

====

- Tested on: 786-0 renal
- assaySummary: NCI-60 one-dose screen, 48 h (100 = growth as untreated, 0 = no growth, -100 = all killed)
- protocolConditions: 10 µM unless noted
This is part of a sample that, as a whole, favours compounds with a hit. Of some 83,000 tested, about 20% had one in any assay.
Could you mark each record TRUE if its growth falls strictly under 40%, and FALSE if it equals or exceeds it?

Below are worked cases with known answers.
NC(N)=Nc1ccc(Oc2ccc(Nc3ccc(Cl)c(C(F)(F)F)c3)cc2)cc1 : TRUE
O=S(=O)(NCCCNc1nccc(-c2[nH]c(-c3ccccc3)nc2-c2ccc(Cl)c(O)c2)n1)c1cccc2ccccc12 : FALSE
N#Cc1cccc(CN2CCC3=C(C2)C(=O)N(Cc2ccc(Cl)cc2)C2=NCCCN23)c1 : FALSE
NC(N)=Nc1ccc(Oc2cccc(Nc3ccc(Br)c(C(F)(F)F)c3)c2)cn1 : TRUE

Prompt: Would you kindly verify if growth of `O=C1[C@H]2Cc3c([nH]c4ccccc34)[C@@H](c3ccc(Cl)cc3)N2C(=O)CN1C1CCN(Cc2ccccc2)CC1` is strictly less than 40%?
Response: FALSE

====

- Tested on: CCRF-CEM leukemia
- assaySummary: NCI-60 one-dose screen, 48 h
- protocolConditions: 10 µM unless noted
- Description: Growth inhibition of the CCRF-CEM human tumor cell line is measured as a screen for anti-cancer activity. Cells are grown in 96 well plates and exposed to the test compound for 48 hours. Compounds are tested at a single concentration, which is 10^-5 M for most compounds. The reported endpoint is percent growth (GI% or GIPRCNT), where numbers from 0 - 100% represent growth inhibition, and numbers from -100% - 0 represent cell death. For example, a value of 40 represents 60% growth inhibition. […]
This is part of a sample that, as a whole, favours compounds with a hit. Of some 83,000 tested, about 20% had one in any assay. Active and inactive are the calls of the source. The calls were made as follows: active = growth percent below 10; inactive = the rest.
The reply should name one outcome from Y (active), N (inactive)

COc1ccc(NC(=O)Nc2ccc3c(ccn3C(=O)c3cccc(F)c3)c2)cc1 : N
O=C(Nc1ccc(Br)cc1)Nc1nc2ccc([N+](=O)[O-])cc2s1 : N
C=CCn1c(SCC(=O)Nc2ccc(C(=O)/C=C/c3ccc(Cl)cc3)cc2)nnc1-c1c[nH]c2ccccc12 : N
CCOc1ccc(NC2=C(Cl)C(=O)c3nc(C)ccc3C2=O)cc1 : Y

Please examine the following record next.
Prompt: Outcome logged for `CN1CCN(Cc2ccc(NC(=O)c3cncc(C#Cc4cnc5ccc(NCCCO)nn45)c3)cc2C(F)(F)F)CC1` in this assay:
Response: Y

====

- Test system: SW-620 colon
- assaySummary: NCI-60 one-dose screen, 48 h (100 = growth as untreated, 0 = no growth, -100 = all killed)
- protocolConditions: 10 µM unless noted
- Procedure: Growth inhibition of the SW-620 human tumor cell line is measured as a screen for anti-cancer activity. Cells are grown in 96 well plates and exposed to the test compound for 48 hours. Compounds are tested at a single concentration, which is 10^-5 M for most compounds. The reported endpoint is percent growth (GI% or GIPRCNT), where numbers from 0 - 100% represent growth inhibition, and numbers from -100% - 0 represent cell death. For example, a value of 40 represents 60% growth inhibition. […]
Compounds without any hit were thinned out: in the full panel of roughly 83,000, 20% have a hit.
Assign class by growth: not lower than 40% means y; lower than 40% means n.

Sample answers from the record:
CCO/C=N/C1=C(C#N)C(c2ccc(OC)cc2)c2sc3c(CC)cccc3c2O1 (stereo not given) : n
CC(C)(O)c1cncc(-c2ccc3ncnc(NCc4ccccc4)c3c2)c1 : y
CC1(C)CC[C@]2(CN)CC[C@]3(C)C(=CC[C@@H]4[C@@]5(C)CCCNC(C)(C)[C@@H]5CC[C@]43C)[C@H]2C1 : y
C=CC(=O)N1CCC=C(c2cc3c(N[C@H](C)c4ccccc4)ncnc3[nH]2)C1 : y

Now for another entry.
Prompt: Form field: growth at least 40%? Entry: `COc1cc(OC)c(/C=C/S(=O)(=O)Cc2ccc(OC)c(NCC(=O)NO)c2)c(OC)c1`
Response: n

====

- Tested on: HS 578T breast
- assaySummary: NCI-60 one-dose screen, 48 h
- protocolConditions: 10 µM unless noted
This is part of a sample that, as a whole, favours compounds with a hit. Of some 83,000 tested, about 20% had one in any assay. The source made the active and inactive calls. Rule for the calls: active = growth percent below 10; inactive = the rest.
Pick from active, inactive when you respond.

Prompt: Query: recorded result category for `O=C(Cn1cc[n+](CC(=O)c2ccc(-c3ccccc3)cc2)c1)Nc1cccc2cccnc12` in this test
Response: inactive

Prompt: Answer briefly: the call reported for `CNC(=O)c1cc(-n2ccc3cc(NC(=O)Nc4ccc(N5CCOCC5)c(C(F)(F)F)c4)ccc32)ccn1` in this assay.
Response: inactive

====

- Tested on: CAKI-1 renal
- assaySummary: NCI-60 one-dose screen, 48 h
- protocolConditions: 10 µM unless noted
This is part of a sample that, as a whole, favours compounds with a hit. Of some 83,000 tested, about 20% had one in any assay. Activity calls are given as the source filed them. The calls were made as follows: active = growth percent below 10; inactive = the rest.
# output must be one of True = active, False = inactive

COc1ccc2[nH]cc(-c3csc4nc(-c5ccccc5)cn34)c2c1 : False
Nc1cc(-c2c[nH]c3ccc(Br)cc23)nc2cc(-c3c[nH]c4ccc(Br)cc34)nn12 : False
CC1(C)[C@@H](O)CC[C@]2(C)[C@H]3CC[C@@H]4[C@H]5[C@H](C(=O)/C=C\c6ccc([N+](=O)[O-])cc6)CC[C@]5(O)CC[C@@]4(C)[C@]3(C)CC[C@@H]12 : False
Cc1ccc(CSc2nc(-c3ccc(Cl)cc3)c(C#N)c(N3CCOCC3)n2)cc1 : False
CCCSc1nc(Nc2ccc(/C(C)=N\NC(N)=S)cc2)c(C#N)c(-c2ccccc2)n1 : False
C[C@@H]1C[C@H]2C(=O)O[C@@H](C)C(NC(=O)[C@H](Cc3cc(F)cc(F)c3)NC(=O)Nc3ccc(Cl)cc3F)C(=O)N3CCC[C@H]3C(=O)N3CCCC[C@H]3C(=O)N[C@@H](CO)C(=O)N2C1 (some centres not stated) : False

Prompt: Outcome logged for `O=C(O)c1cn(C2CC2)c2cc(N3CCN(C(=O)CN4C(=O)CSC4=O)CC3)c(F)cc2c1=O` in this assay:
Response: False

Prompt: Query: recorded result category for `COc1ccc(-c2nc3cc(Cl)c(Cl)cc3n2CC(=O)N=Nc2c(O)[nH]c3ccc(OC)cc23)cc1` in this test
Response: False

Prompt: What call does the record list for COc1cc2c(cc1OC)C(Sc1ccc(C)cc1)c1c(nc(N)c(C#N)c1N)O2 (configuration not stated) ?
Response: True

Prompt: Identify the outcome logged in this assay for the compound shown: `Nc1nc(-c2cccc([N+](=O)[O-])c2)c(N=Nc2ccc(Br)cc2)s1`
Response: True

====

- System: SK-MEL-5 melanoma
- assaySummary: NCI-60 one-dose screen, 48 h (100 = growth as untreated, 0 = no growth, -100 = all killed)
- protocolConditions: 10 µM unless noted
The panel holds about 83,000 compounds, 20% with a hit somewhere; the sample as a whole holds those more often.
growth: recorded values
Give just the number in %; leave the unit off.

Brc1ccccc1/C=N/Nc1nc(N/N=C/c2ccccc2Br)nc(N2CCOCC2)n1 : 69.6
CCN1CCN(C(=O)[C@]23CCC(C)(C)C[C@H]2C2=CC[C@@H]4[C@@]5(C)Cc6c([nH]c7ccccc67)C(C)(C)[C@@H]5CC[C@@]4(C)[C@]2(C)CC3)CC1 : 97.3
CCCCCc1ccc(S(=O)(=O)Nc2cccc(-c3csc(NC(=O)CNCCN(C)C)n3)c2)cc1 : 73.2
O=C(c1ccc(O)c(C(=O)N2Cc3ccc(OCCC[P+](c4ccccc4)(c4ccccc4)c4ccccc4)cc3C2)c1)N1Cc2cccc(F)c2C1 : 29.3

Prompt: Report growth for `Nc1nc(Nc2ccccc2SSc2ccccc2Nc2nc(N)nc(-c3ccc4ccccc4c3)n2)nc(-c2ccc3ccccc3c2)n1` please.
Response: 92.3

Prompt: Requested field: growth. Item: CCNC(=O)N1CCc2cc(OC)c(OCCc3ccc(OC)nc3)cc2C1c1ccc(C)cc1C (stereo not drawn)
Response: -31.6

Prompt: Entry `COc1ccc2[nH]cc(-c3csc4nc(-c5ccccc5)cn34)c2c1` has what growth?
Response: 47.2

Prompt: Fill blank: measured growth of the molecule `COc1ccc2c(c1)c(CC(=O)[Se]CC#N)c(C)n2C(=O)c1ccc(Cl)cc1` is ____.
Response: -6.8
